# Tested on: P. aeruginosa PAO1
# Set-up: unit not given beside the values
# CONDITION LABEL: antibiotic in combination with PMBN
VALUE KIND: MICDrug in combo

> print(dat)
                                   compound       tested.target  result
1  CN(C)c1ccc(O)c2c1C[C@H]1C[C@H]3[C@H](N(C)C)C(O)=C(C(N)=O)C(=O)[C@@]3(O)C(O)=C1C2=O [Minocycline, reference compound]  P. aeruginosa PAO1   (0.5)
2  CC(=O)NC[C@H]1CN(c2ccc(N3CCOCC3)c(F)c2)C(=O)O1 [Linezolid, reference compound]  P. aeruginosa PAO1    (32)
3  COc1cc(Cc2cnc(N)nc2N)cc(OC)c1OC [Trimethoprim, reference compound]  P. aeruginosa PAO1     (8)
4  O=C(N[C@H](CO)[C@H](O)c1ccc([N+](=O)[O-])cc1)C(Cl)Cl [Chloramphenicol, reference compound]  P. aeruginosa PAO1     (2)

Where do the numbers come from? From patent US20210261621A1.
